Hello, the source for this data is PubChem BioAssay AID624079, in case you need it.

# measured target: metallo-beta-lactamase VIM-2 (Pseudomonas aeruginosa)
# method notes: VIM-2 metallo-beta-lactamase inhibitors, late-stage follow-up, biochemical, absorbance, probe candidates and analogs (AID 624079)
# conditions: purified VIM-2, nitrocefin hydrolysis, epi-absorbance

[
  {
    "chem smiles": "CN1CCN(NC(=O)CN2C(=O)/C(=C/c3c(Cl)ccc(Cl)c3Cl)SC2=S)CC1",
    "measured target": "metallo-beta-lactamase VIM-2 (Pseudomonas aeruginosa)",
    "IC50": "548 nM"
  }
]
